# Plate bound IgG, fold over unstimulated control (25 nM IgG) listing for each entry below
Biological target: human TREM2/DAP12 fusion protein (human, UniProt O43914 41-113, limits assumed)
Sequence (O43914 other isoform, or with tags, fused parts or gaps limits assumed): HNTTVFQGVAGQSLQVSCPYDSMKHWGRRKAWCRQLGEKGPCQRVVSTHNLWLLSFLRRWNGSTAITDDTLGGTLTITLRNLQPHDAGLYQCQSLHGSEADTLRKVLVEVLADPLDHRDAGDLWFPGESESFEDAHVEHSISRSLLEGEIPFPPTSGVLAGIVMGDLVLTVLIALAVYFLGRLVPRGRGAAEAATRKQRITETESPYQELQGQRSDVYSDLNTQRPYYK
Test: cell-based or functional assay
reported endpoint: Plate bound IgG, fold over unstimulated control (25 nM IgG) (fold)

[
  {
    "binder": "AL2p huIgG1 (human mouse chimeric parental antibody) (antibody, V domains shown, Mouse variable region with human IgG1 Fc region; Fab and IgG formats under one id; also called chimeric parental AL2p antibody as huIgG1) VH: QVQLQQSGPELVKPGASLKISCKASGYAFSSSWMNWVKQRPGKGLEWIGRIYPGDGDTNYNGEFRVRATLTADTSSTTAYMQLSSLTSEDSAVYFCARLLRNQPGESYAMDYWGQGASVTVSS VL: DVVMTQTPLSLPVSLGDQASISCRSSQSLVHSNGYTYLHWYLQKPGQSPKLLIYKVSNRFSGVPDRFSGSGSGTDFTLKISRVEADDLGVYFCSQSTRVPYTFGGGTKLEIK",
    "units label": "fold",
    "readout number": 1.29
  },
  {
    "binder": "AL2p-37 (antibody, IgG1, V domains shown, Fab and IgG formats under one id; also called AL2p-37 huIgG1) VH: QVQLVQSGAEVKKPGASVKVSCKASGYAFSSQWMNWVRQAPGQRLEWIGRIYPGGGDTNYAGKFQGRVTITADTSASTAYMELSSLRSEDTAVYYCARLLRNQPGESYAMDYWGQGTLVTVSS VL: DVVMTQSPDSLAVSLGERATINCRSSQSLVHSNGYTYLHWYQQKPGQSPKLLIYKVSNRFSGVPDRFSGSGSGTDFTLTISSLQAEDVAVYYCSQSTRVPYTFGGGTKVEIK",
    "units label": "fold",
    "readout number": 1.56
  },
  {
    "binder": "AL2p-47 huIgG1 (antibody, V domains shown) VH: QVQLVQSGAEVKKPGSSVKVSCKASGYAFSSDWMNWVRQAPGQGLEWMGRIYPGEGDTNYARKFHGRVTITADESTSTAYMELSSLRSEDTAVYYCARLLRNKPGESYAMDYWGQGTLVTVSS VL: DVVMTQTPLSLSVTPGQPASISCRTSQSLVHSNAYTYLHWYLQKPGQSPQLLIYKVSNRVSGVPDRFSGSGSGTDFTLKISRVEAEDVGVYYCSQSTRVPYTFGQGTKLEIKR",
    "units label": "fold",
    "readout number": 3.94
  },
  {
    "binder": "AL2p-61 huIgG1 (antibody, V domains shown) VH: QVQLVQSGAEVKKPGSSVKVSCKASGYAFSSQWMNWVRQAPGQGLEWMGRIYPGEGDTNYARKFQGRVTITADESTSTAYMELSSLRSEDTAVYYCARLLRNQPGESYAMDYWGQGTLVTVSS VL: GVVMTQTPLSLSVTPGQPASISCRSSQSLVHSNQYTYLHWYLQKPGQSPQLLIYKVSNRRSGVPDRFSGSGSGTDFTLKISRVEAEDVGVYYCSQSTRVPYTFGQGTKLEIKR",
    "units label": "fold",
    "readout number": 8.97
  }
]
